Data provenance: patent US7674787B2

Target: XIAP BIR3 (Homo sapiens)
Assay: biochemical
Settings: Ki
pKi: −log10 of the molar value.
MEASURED PARAMETER: pKi

> print(dat)
                           molecular.string  meas.value
1  CC[C@H](N)C(=O)N[C@H]1CCC[C@H]2CC[C@@H](C(=O)NCc3ccccc3)N2C1=O        7.22

---

Target: XIAP BIR3 (Homo sapiens, UniProt P98170)
Sequence (P98170 241-356): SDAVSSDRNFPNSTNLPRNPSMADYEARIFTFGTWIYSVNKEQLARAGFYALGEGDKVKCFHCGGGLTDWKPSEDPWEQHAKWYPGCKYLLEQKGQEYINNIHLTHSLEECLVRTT
Assay: biochemical
pKi: −log10 of the molar value.
MEASURED PARAMETER: pKi

> print(dat)
                                   compound  measured.parameter  meas.value
1  Cc1cccc(CNC(=O)[C@@H]2CC[C@@H]3CC[C@H](NC(=O)[C@H](C)N)C(=O)N32)c1                 pKi        4.35
2  CC(C)C(NC(=O)[C@H](C)N)C(=O)C1CCC[C@H]1C(=O)NCc1ccccc1 (stereo partly shown)                 pKi        6.54
3  CC[C@H](NC)C(=O)N[C@H]1CCCC[C@H]2CC[C@@H](C(=O)NC(c3ccccc3)c3ccccc3)N2C1=O                 pKi        7.52
4  CC[C@@H](C(=O)N[C@H]1CCCC[C@H]2CC[C@@H](C(=O)NC(c3ccccc3)c3ccccc3)N2C1=O)N(C)C                 pKi        7.52
5  CC[C@H](N)C(=O)N[C@H]1CCCC[C@H]2CC[C@@H](C(=O)NC(c3ccccc3)c3ccccc3)N2C1=O                 pKi        7.55
6  C[C@H](N)C(=O)N[C@H]1CC[C@H]2CC[C@@H](C(=O)NCc3ccoc3)N2C1=O                 pKi        5.00
7  CC[C@H](N)C(=O)N[C@H]1CCCC[C@H]2CC[C@@H](C(=O)N[C@@H](c3ccccc3)c3ccccc3C)N2C1=O                 pKi        7.72

---

Target: XIAP BIR3 (Homo sapiens)
Test: biochemical
Settings: Ki (μM), Table 5
MEASURED PARAMETER: Ki

> print(dat)
                                   molecule  measured.parameter  meas.value
1  CCC[C@H](N)C(=O)N[C@H]1CC[C@H]2CC[C@@H](C(=O)NCc3ccccc3)N2C1=O [SH-93]                  Ki    > 100 µM

---

Each item that follows carries a reported pKi.
Biological target: XIAP BIR3 (Homo sapiens)
Test: biochemical
pKi: −log10 of the molar value.
MEASURED PARAMETER: pKi

> print(dat)
                            molecular.string           measured.target  result.modifier  meas.value
 1  C[C@H](N)C(=O)N[C@H]1CC[C@H]2CC[C@@H](C(=O)NCc3ccccc3Br)N2C1=O  XIAP BIR3 (Homo sapiens)                =        4.58
 2  CC[C@H](N)C(=O)N[C@H]1CCCC[C@H]2CC[C@@H](C(=O)N[C@H](c3ccccc3)c3ccc4ccccc4c3)N2C1=O  XIAP BIR3 (Homo sapiens)                =        6.92
 3  CC[C@H](N)C(=O)N[C@H]1CCC[C@H]2CC[C@@H](C(=O)NCc3ccccc3)N2C1=O  XIAP BIR3 (Homo sapiens)                =        7.22
 4  C[C@H](N)C(=O)N[C@H]1CC[C@H]2CC[C@@H](C(=O)NCCc3c[nH]c4ccccc34)N2C1=O  XIAP BIR3 (Homo sapiens)                <        3.70
 5  CC[C@H](N)C(=O)N[C@H]1CCCC[C@H]2CC[C@@H](C(=O)N[C@H](c3ccccc3)c3ccccc3C)N2C1=O  XIAP BIR3 (Homo sapiens)                =        6.85
 6  C[C@H](N)C(=O)N[C@H]1CC[C@H]2CC[C@@H](C(=O)N[C@H](Cc3ccccc3)C(N)=O)N2C1=O  XIAP BIR3 (Homo sapiens)                =        5.00
 7  C[C@H](N)C(=O)N[C@H]1CC[C@H]2CC[C@@H](C(=O)Nc3ccccc3)N2C1=O  XIAP BIR3 (Homo sapiens)                <        3.70
 8  C[C@H](N)C(=O)N[C@H]1CC[C@H]2CC[C@@H](C(=O)N[C@@H](C)c3ccccc3)N2C1=O  XIAP BIR3 (Homo sapiens)                <        3.70
 9  C[C@H](N)C(=O)N[C@H]1CC[C@H]2CC[C@@H](C(=O)NCc3ccsc3)N2C1=O  XIAP BIR3 (Homo sapiens)                =        5.20
10  CC[C@H](N)C(=O)N[C@H]1CCCC[C@H]2CC[C@@H](C(=O)N[C@@H](c3ccccc3)c3ccc(C)cc3)N2C1=O  XIAP BIR3 (Homo sapiens)                =        7.80
11  CC[C@H](N)C(=O)N[C@H]1CCCC[C@H]2CC[C@@H](C(=O)N[C@@H](c3ccccc3)c3ccc4ccccc4c3)N2C1=O  XIAP BIR3 (Homo sapiens)                =        7.64
12  CC[C@H](N)C(=O)N[C@H]1CCCC[C@H]2CC[C@@H](C(=O)N[C@H](c3ccccc3)c3cccc(C)c3)N2C1=O  XIAP BIR3 (Homo sapiens)                =        7.57
13  C[C@H](O)C(=O)N[C@H]1CCCC[C@H]2CC[C@@H](C(=O)NC(c3ccccc3)c3ccccc3)N2C1=O  XIAP BIR3 (Homo sapiens)                <        5.00
14  CC[C@H](N)C(=O)N[C@H]1CCCC[C@H]2CC[C@@H](C(=O)N[C@H](c3ccccc3)c3ccc(C)cc3)N2C1=O  XIAP BIR3 (Homo sapiens)                =        7.04
15  C[C@H](N)C(=O)N[C@H]1CC[C@H]2CC[C@@H](C(=O)N[C@H](C)c3ccccc3)N2C1=O  XIAP BIR3 (Homo sapiens)                =        5.05
